IC50 by entry:
target: α4β1 integrin (Homo sapiens (Human), UniProt P05556+P13612); test: Integrin Adhesion Assay: Protocol 5 (VCAM-coated plate, RPMI-8866 cells with stable LOF mutation of the ITGB7 gene); type: cell-based; settings: RPMI-8866 cells with stable LOF mutation of the ITGB7 gene; read-out: Mean IC50 α4β1 KO^b
Sequence (P13612 34-1032): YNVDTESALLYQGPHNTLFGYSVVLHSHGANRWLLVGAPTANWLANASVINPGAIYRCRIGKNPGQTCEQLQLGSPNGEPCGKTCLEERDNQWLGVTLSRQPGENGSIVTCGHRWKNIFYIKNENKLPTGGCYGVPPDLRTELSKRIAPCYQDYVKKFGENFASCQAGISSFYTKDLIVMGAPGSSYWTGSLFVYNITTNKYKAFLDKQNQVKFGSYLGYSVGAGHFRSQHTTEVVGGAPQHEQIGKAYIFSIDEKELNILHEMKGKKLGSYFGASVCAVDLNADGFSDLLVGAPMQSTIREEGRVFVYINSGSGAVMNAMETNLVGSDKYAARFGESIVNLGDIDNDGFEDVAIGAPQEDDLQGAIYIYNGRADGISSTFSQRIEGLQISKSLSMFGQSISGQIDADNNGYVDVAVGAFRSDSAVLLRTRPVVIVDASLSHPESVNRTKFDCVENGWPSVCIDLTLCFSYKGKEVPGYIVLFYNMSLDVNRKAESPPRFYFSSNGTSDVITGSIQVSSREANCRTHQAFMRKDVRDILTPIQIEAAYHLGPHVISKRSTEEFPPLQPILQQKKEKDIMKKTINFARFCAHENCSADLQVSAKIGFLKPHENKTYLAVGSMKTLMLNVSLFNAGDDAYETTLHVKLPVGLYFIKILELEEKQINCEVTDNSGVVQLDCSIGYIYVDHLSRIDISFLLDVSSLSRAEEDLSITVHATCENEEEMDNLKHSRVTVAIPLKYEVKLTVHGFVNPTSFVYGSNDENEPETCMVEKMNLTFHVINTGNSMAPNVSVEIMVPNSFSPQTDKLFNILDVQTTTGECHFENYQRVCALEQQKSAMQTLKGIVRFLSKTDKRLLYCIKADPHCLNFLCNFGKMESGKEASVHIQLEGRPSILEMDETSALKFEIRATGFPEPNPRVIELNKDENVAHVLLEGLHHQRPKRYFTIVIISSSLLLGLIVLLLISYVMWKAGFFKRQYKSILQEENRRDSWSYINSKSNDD
Sequence (P05556 21-798): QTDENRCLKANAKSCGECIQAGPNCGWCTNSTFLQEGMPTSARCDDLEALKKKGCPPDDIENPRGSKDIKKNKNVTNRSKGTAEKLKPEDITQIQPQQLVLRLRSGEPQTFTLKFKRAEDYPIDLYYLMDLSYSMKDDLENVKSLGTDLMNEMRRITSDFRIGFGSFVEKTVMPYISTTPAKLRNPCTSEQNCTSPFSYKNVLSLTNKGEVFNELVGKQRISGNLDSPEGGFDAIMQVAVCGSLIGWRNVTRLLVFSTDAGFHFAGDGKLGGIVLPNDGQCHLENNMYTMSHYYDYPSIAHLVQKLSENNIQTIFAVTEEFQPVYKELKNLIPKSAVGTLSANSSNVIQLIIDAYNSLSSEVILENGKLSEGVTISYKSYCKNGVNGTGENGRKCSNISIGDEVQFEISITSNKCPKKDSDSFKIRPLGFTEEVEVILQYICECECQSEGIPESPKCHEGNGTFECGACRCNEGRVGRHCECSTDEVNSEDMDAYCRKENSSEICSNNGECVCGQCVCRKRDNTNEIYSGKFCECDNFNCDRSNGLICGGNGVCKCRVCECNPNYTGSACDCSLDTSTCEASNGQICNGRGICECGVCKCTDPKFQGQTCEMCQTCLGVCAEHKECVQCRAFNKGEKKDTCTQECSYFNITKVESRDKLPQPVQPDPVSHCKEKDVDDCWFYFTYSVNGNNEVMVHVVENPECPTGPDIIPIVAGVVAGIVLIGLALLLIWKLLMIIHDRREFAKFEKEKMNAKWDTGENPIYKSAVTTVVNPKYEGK

INSERT INTO results (molecule, result) VALUES
  ('COc1cccc(F)c1C(=O)N[C@@H](Cc1cccc2c(-c3c(CN4CCCCC4)cccc3OC)cccc12)C(=O)O', '100 to 1000 nM'),
  ('Cn1c(=O)c(-c2cccc3c(C[C@H](NC(=O)C4(C(F)(F)F)CCN(C(C)(C)C(F)(F)F)CC4)C(=O)O)cccc23)c(C(F)(F)F)c2ccccc21', '> 1000 nM'),
  ('COc1ccc(CN2CC(OC(C)(C)C)C2)c(OC)c1-c1cccc2c(C[C@H](NC(=O)C3(C(F)(F)F)CCN(CC(F)(F)F)CC3)C(=O)O)cccc12', '> 1000 nM'),
  ('COc1ccc(CN(C)C)c(OC)c1-c1cccc2c(C[C@H](NC(=O)c3c(C)cccc3Cl)C(=O)O)cccc12', '100 to 1000 nM'),
  ('O=C(N[C@@H](Cc1cccc2c(-c3cccc4ccncc34)cccc12)C(=O)O)c1c(F)cccc1CN1CCC(F)(F)CC1', '> 1000 nM');

Which IC50 is listed for COc1ccc(CN2CCC(F)(F)CC2)c(OC)c1-c1cccc2c(C[C@H](NC(=O)C3(C(F)(F)F)CCN(C4COCC4(F)F)CC3)C(=O)O)cccc12 (single isomer, unassigned) [Compound 640] ?
> 1000 nM

The values you see were collected from patent US20250313535A1.
